Assay Target: T1, human epidermal growth factor receptor antigen (human, UniProt P00533 25-645, limits assumed)
T1 construct: whole entry named; also called EGFR
Method Summary: SPR (Biacore T200), 37 C, scFv-Fc, 0 uM MTX
Experimental Endpoint: koff (s⁻¹)
Field format: number, assumed s⁻¹, no unit text.

# lookup: koff of P14_E03 scFv-Fc fusion (scFv, V domains shown, Tested as scFv-Fc fusion) VH: QVQLVESGGGLVQAGGSLRLSCAASRRSSRSWAMHWVRQAPGKGLEWVAVISYDGRLKYYADSVKGRFTISRDNAEYLVYLQMNSLRAEDTAVYYCAAAPRVDWSDVSSGIDYWGQGTLVTVSS VL: QSVLTQPPSASGTPGQRVTISCSGSISNIGTNNVYWYQQLPGTAPKLLIYRNNQRPSGVPDRFSGSKSGTSASLAISGLRSEDEADYYCSAWDDSLSGVVFGTGTKLTVL
0.00067

# lookup: koff of P05_A11 scFv-Fc fusion (scFv, V domains shown, Tested as scFv-Fc fusion) VH: QVQLVESGGGLVQAGGSLRLSCAASRRSSRSWAMHWVRQAPGKGLEWVAVISYDGRLKYYADSVKGRFTISRDNAEYLVYLQMNSLRAEDTAVYYCAASDDADIFDDYSYGAMDYWGQGTLVTVSS VL: QSVLTQPPSASGTPGQRVTISCSGSSSNIGRNYVYWYQQLPGTAPKLLIYMTSQRPSGVPDRFSGSKSGTSASLAISGLRSEDEADYYCASWDDNLRAWVFGTGTKLTVL
0.028

# lookup: koff of P01_F02 scFv-Fc fusion (scFv, V domains shown, Tested as scFv-Fc fusion) VH: QVQLVESGGGLVQAGGSLRLSCAASRRSSRSWAMHWVRQAPGKGLEWVAVISYDGRLKYYADSVKGRFTISRDNAEYLVYLQMNSLRAEDTAVYYCAADVESALAYGEPYHHMDVWGQGTLVTVSS VL: QSVLTQPPSASGTPGQRVTISCSGSSSNIGRNYVYWYQQLPGTAPKLLIYRTSQRPSGVPDRFSGSKSGTSASLAISGLRSEDEADYYCATWDDSLSGWVFGTGTKLTVL
0.011

# lookup: koff of P07_H08 scFv-Fc fusion (scFv, V domains shown, Tested as scFv-Fc fusion) VH: QVQLVESGGGLVQAGGSLRLSCAASRRSSRSWAMHWVRQAPGKGLEWVAVISYDGRLKYYADSVKGRFTISRDNAEYLVYLQMNSLRAEDTAVYYCAAGFDWGWDSSDIYSAMDYWGQGTLVTVSS VL: DIQMTQSPSSLSASVGDRVTITCRASQNIGRYLHWYQQKPGKAPKLLIYSASNLQSGVPSRFSGSGSGTDFTLTISSLQPEDFATYYCQQSYSSPFTFGQGTKVEIK
0.27
